studySystem: T1, CD3 epsilon homodimer protein (UniProt P07766 23-126)
T1 construct: also called CD3 (CD3 epsilon)
T1 sequence (P07766 23-126): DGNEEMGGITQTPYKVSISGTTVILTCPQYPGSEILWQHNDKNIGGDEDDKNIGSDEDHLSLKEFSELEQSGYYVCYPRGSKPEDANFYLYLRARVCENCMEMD
experiment: SPR, antibody over immobilised CD3e homodimer;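 note: SPR at 25 °C with CD3 epsilon homodimer amine-coupled to a CM4 sensor chip and antibody flowed over as analyte in HBS-EP+ running buffer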
Overview of reported KD ratio to GLS3000 across a group of binders:

Example binders with recorded KD ratio to GLS3000:
CE115HA000/GLS3000 N53D (antibody, IgG1, name in Kabat numbering, V domains shown, one-arm IgG1) VH: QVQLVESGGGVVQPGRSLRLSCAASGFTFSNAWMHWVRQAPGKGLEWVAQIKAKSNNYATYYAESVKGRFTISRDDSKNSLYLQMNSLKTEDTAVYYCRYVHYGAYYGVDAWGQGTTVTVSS VL: DIVMTQSPLSLPVTPGEPASISCRSSQSLVHSNRNTYLHWYQQKPGQAPRLLIYKVSDRFSGVPDRFSGSGSGTDFTLKISRVEAEDVGVYYCGQGTQVPYTFGQGTKLEIK = 2.8
CE115HA000/GLS3000 N28Y (antibody, IgG1, name in Kabat numbering, V domains shown, one-arm IgG1) VH: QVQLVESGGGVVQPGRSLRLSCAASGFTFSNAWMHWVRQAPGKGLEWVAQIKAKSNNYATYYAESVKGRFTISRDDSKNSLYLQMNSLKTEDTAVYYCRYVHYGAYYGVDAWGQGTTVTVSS VL: DIVMTQSPLSLPVTPGEPASISCRSSQSLVHSYRNTYLHWYQQKPGQAPRLLIYKVSNRFSGVPDRFSGSGSGTDFTLKISRVEAEDVGVYYCGQGTQVPYTFGQGTKLEIK = 3.89

Next item in the queue.
Problem: Which KD ratio to GLS3000 value belongs to CE115HA000/GLS3000 S56T (antibody, IgG1, name in Kabat numbering, V domains shown, one-arm IgG1) VH: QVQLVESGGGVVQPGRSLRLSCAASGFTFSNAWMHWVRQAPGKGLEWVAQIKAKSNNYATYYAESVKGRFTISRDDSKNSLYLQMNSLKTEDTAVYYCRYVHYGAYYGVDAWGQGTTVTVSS VL: DIVMTQSPLSLPVTPGEPASISCRSSQSLVHSNRNTYLHWYQQKPGQAPRLLIYKVSNRFTGVPDRFSGSGSGTDFTLKISRVEAEDVGVYYCGQGTQVPYTFGQGTKLEIK ?
Solution: 1.01
